Target: human mAChR M4 (Homo sapiens)
Construct: expressed in transfected cells
Assay: mAChR M4 cell-based functional assay (calcium mobilization, CHO-K1 hM4-Gqi5 cells)
Details: CHO-K1, % ACh maximum at 30 μM; human M4
Property name: Emax at 30 µM (%)
Hi! Could you send only the number? It should be in %, unit omitted.

// worked examples, Emax at 30 µM included
> print(dat)
                                   compound  val
1  Cc1cc(C(=O)N2CC3(COC3)C2)nnc1N1CCc2ncc(N3CCO[C@H](C)C3)cc2C1   75
2  O=C1c2cc(Br)c(N3CCc4ncc(C(F)(F)F)cc4C3)nc2OCCN1Cc1ccccc1   56
3  Cc1cc(C(=O)NCC(C)(C)O)cnc1N1CCc2ncc(-c3cn(C)nc3C)cc2C1   76
4  Cc1cc(C(=O)NCc2ncc(Cl)cn2)cnc1N1CCc2ncccc2C1   56
5  Cc1cc(C#N)cnc1N1CCc2ncc(N3CCOC(c4ccccn4)C3)cc2C1 (stereo not shown)   71

Q. Tell me measured Emax at 30 µM for Cc1ccc(Nc2cnc3c(c2)CN(c2ncc(C#N)cc2C)CC3)c(F)n1 please.
A. 96

Q. Tell me measured Emax at 30 µM for Cc1cc(C(=O)N2CC(C)(F)C2)nnc1N1CCc2ncc(N3CCCn4nccc43)cc2C1 please.
A. 116

Q. Tell me measured Emax at 30 µM for Cc1cnccc1Nc1cnc2c(c1)CN(c1ncc(C#N)cc1C)CC2 please.
A. 96

Q. Tell me measured Emax at 30 µM for Cc1cc(C#N)cnc1N1CCc2ncc(N3CC(C)Cn4nccc43)cc2C1 (stereo not shown) please.
A. 100

Q. Tell me measured Emax at 30 µM for Cc1cc(C(=O)N2CC(F)C2)nnc1N1CCc2ncc(CC(F)(F)F)cc2C1 please.
A. 99

Q. Tell me measured Emax at 30 µM for Cc1cc(C(=O)NCc2cncs2)nnc1N1CCc2ncc(C(F)(F)F)cc2C1 please.
A. 110

Q. Tell me measured Emax at 30 µM for Cc1c(Cl)nc(C(F)(F)F)nc1N1CCc2ncc(C3CC3)cc2C1 please.
A. 83

Q. Tell me measured Emax at 30 µM for Cc1c(C#N)nnc(N2CCc3ncc(Oc4cccc(F)c4F)cc3C2)c1C please.
A. 64

Q. Tell me measured Emax at 30 µM for Cc1cc(C(=O)N2CCCn3nccc32)nnc1N1CCc2ncc(C(F)(F)F)cc2C1 please.
A. 103

Q. Tell me measured Emax at 30 µM for Cc1cc(C(=O)NCc2ccncc2)cnc1N1CCc2ncc(-c3ccc(C4CC4)nc3)cc2C1 please.
A. 84

Q. Tell me measured Emax at 30 µM for Cc1cc(C(=O)NC2CCCC2)cnc1N1CCc2ncccc2C1 please.
A. 52

Q. Tell me measured Emax at 30 µM for Cc1cc(C#N)cnc1N1CCc2ncc(-c3cc(F)ncc3F)cc2C1 please.
A. 71

Q. Tell me measured Emax at 30 µM for COCCOc1cnc2c(c1)CN(c1ncc(C#N)cc1C)CC2 please.
A. 102

Q. Tell me measured Emax at 30 µM for COc1ccc(Oc2cnc3c(c2)CN(c2ncc(C#N)cc2C)CC3)cn1 please.
A. 75

Q. Tell me measured Emax at 30 µM for COc1nc(C)nc(N2CCc3ncc(-c4cn(C)nc4C)cc3C2)c1C please.
A. 70

Q. Tell me measured Emax at 30 µM for [2H]C1([2H])Cc2ncc(Nc3ccncc3F)cc2C([2H])([2H])N1c1nnc(C#N)c(C)c1C please.
A. 83

Q. Tell me measured Emax at 30 µM for Cc1c(C#N)nnc(N2CCc3ncc(-c4cnn(CC(C)(C)O)c4)cc3C2)c1C please.
A. 68

Q. Tell me measured Emax at 30 µM for [2H]C1([2H])Cc2ncc(Nc3cccnc3C)cc2C([2H])([2H])N1c1ncc(C#N)cc1C please.
A. 92

Q. Tell me measured Emax at 30 µM for Cc1cc(C(=O)NC2(c3cccnc3)CC2)nnc1N1CCc2ncc(N3CCCn4nccc43)cc2C1 please.
A. 80

====

Biological target: human mAChR M4 (Homo sapiens, UniProt P08173)
Construct: expressed in transfected cells
Assay: mAChR M4 cell-based functional assay (calcium mobilization, CHO-K1 hM4-Gqi5 cells)
Conditions: CHO-K1, % ACh maximum at 30 μM; human M4
Each entry gets not fulfilled if its Emax at 30 µM stays under 90%, and fulfilled if its Emax at 30 µM is 90% or above.

Example results:
> print(dat)
                                   compound  assigned.class
1  Cc1nc(Cl)c(C)c(N2CCc3ncc(Nc4ccccc4F)cc3C2)n1 [compound 85]   not fulfilled
2  Cc1nc(Cl)c(C)c(N2CCc3ncc(C(F)(F)F)cc3C2)n1 [compound 200]       fulfilled
3  Cc1cc(C(=O)NCc2nccs2)cnc1N1CCc2ncc(-c3cnn(C)c3)cc2C1 [compound 173]       fulfilled

Q. Threshold query (Emax at 30 µM >= 90%) on Cc1nc(Cl)c(C)c(N2CCc3ncc(-c4c(C)nn(C)c4C)cc3C2)n1 [compound 193]
A. not fulfilled

====

Biological target: human mAChR M4 (Homo sapiens, UniProt P08173)
Construct: expressed in transfected cells
Sequence (P08173 1-479): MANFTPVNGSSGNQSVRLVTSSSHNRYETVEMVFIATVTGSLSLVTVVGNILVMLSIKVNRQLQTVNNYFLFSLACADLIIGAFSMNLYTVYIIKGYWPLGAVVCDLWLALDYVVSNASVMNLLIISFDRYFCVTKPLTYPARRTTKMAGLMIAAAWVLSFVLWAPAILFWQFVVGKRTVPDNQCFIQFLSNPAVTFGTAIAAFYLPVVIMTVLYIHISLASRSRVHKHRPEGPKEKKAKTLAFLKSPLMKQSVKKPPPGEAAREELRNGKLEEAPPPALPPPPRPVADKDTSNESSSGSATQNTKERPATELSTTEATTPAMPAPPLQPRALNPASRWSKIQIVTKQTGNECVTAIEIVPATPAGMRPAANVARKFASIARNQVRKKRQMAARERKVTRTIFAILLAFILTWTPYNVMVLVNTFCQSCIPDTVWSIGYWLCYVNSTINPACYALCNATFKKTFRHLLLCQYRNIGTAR
Assay: mAChR M4 cell-based functional assay (calcium mobilization, CHO-K1 hM4-Gqi5 cells)
Conditions: CHO-K1, % ACh maximum at 30 μM; human M4
Below, each of the molecules is paired with its reported Emax at 30 µM value.
Hi! Could you send only the number? It should be in %, unit omitted.

Q. Tell me measured Emax at 30 µM for Cc1cc(Nc2cnc3c(c2)CN(c2nnc(C#N)c(C)c2C)CC3)c(F)cn1 [Example 614] please.
A. 92

Q. Tell me measured Emax at 30 µM for Cc1nc(Cl)c(C)c(N2CCc3ncc(-c4cnn(C5CCC5)c4)cc3C2)n1 [compound 195] please.
A. 80

Q. Tell me measured Emax at 30 µM for Cc1c(C#N)nnc(N2CCc3ncc(Oc4cc(F)ccc4F)cc3C2)c1C [Example 353] please.
A. 73

Q. Tell me measured Emax at 30 µM for CCCCn1nc(C)cc1Nc1cnc2c(c1)CN(c1ncc(C#N)cc1C)CC2 [Example 315] please.
A. 47

Q. Tell me measured Emax at 30 µM for Cc1cc(C#N)nnc1N1CCc2ncc(Oc3ccccc3F)cc2C1 [Example 396] please.
A. 87

Q. Tell me measured Emax at 30 µM for Cc1cc(C#N)nnc1N1CCc2ncc(Nc3cccnc3F)cc2C1 [Example 399] please.
A. 73

Q. Tell me measured Emax at 30 µM for Cc1ccc(Oc2cnc3c(c2)CN(c2ncc(C#N)cc2C)CC3)c(F)c1 [Example 349] please.
A. 72

Q. Tell me measured Emax at 30 µM for Cc1cc(C#N)cnc1N1CCc2ncc(N(C)c3ccnn3C)cc2C1 [Example 331] please.
A. 86

Q. Tell me measured Emax at 30 µM for Cc1cc(C(=O)NCc2csc3ccccc23)cnc1N1CCc2ncc(C(F)(F)F)cc2C1 [Example 447] please.
A. 97

Q. Tell me measured Emax at 30 µM for Cc1cc(C(=O)NCc2cnc3ccccc3c2)cnc1N1CCc2ncccc2C1 [compound 140] please.
A. 62

Q. Tell me measured Emax at 30 µM for Cc1c(C#N)nnc(N2CCc3ncc(-c4ccc(N5CC6CC5CO6)nc4)cc3C2)c1C (stereo not shown) [Example 333] please.
A. 72

Q. Tell me measured Emax at 30 µM for Cc1cc(C(=O)N2CCCC2)nnc1N1CCc2ncc(-n3cccn3)cc2C1 [Example 530] please.
A. 81

Q. Tell me measured Emax at 30 µM for [2H]C([2H])([2H])c1cnc2c(c1)CN(c1nnc(C(=O)NC3(c4cccnc4)CC3)cc1C)CC2 [Example 580] please.
A. 75

Q. Tell me measured Emax at 30 µM for Cc1cc(C(=O)NCc2ccc3ncnn3c2)cnc1N1CCc2ncccc2C1 [compound 151] please.
A. 67

Q. Tell me measured Emax at 30 µM for [2H]C1([2H])Cc2ncc(Nc3ccncc3F)cc2C([2H])([2H])N1c1nnc(C#N)cc1C [Example 606] please.
A. 90

Q. Tell me measured Emax at 30 µM for Cc1c(C#N)nnc(N2CCc3ncc(N4CC(C)Cn5nccc54)cc3C2)c1C (stereo not shown) [Example 374] please.
A. 96

Q. Tell me measured Emax at 30 µM for Cc1nc(Cl)c(C)c(N2Cc3cc(C(F)(F)F)cnc3C(C)C2)n1 (stereo not shown) [compound 256] please.
A. 85

Q. Tell me measured Emax at 30 µM for Cc1cc(C(=O)NCc2cnc(Cl)s2)cnc1N1CCc2ncc(-c3cn(C)nc3C)cc2C1 [Example 455] please.
A. 93

Q. Tell me measured Emax at 30 µM for Cc1cc(C#N)cnc1N1CCc2ncc(N3CCO[C@@H](c4ccccc4)C3)cc2C1 [Example 378] please.
A. 62

Q. Tell me measured Emax at 30 µM for Cc1c(C#N)nnc(N2CCc3ncc(Nc4ccccc4Cl)cc3C2)c1C [compound 39] please.
A. 73

Q. Tell me measured Emax at 30 µM for Cc1ccncc1-c1cnc2c(c1)CN(c1nnc(C#N)cc1C)CC2 [Example 322] please.
A. 86

Q. Tell me measured Emax at 30 µM for Cc1nc(Cl)c(C)c(N2CCc3ncc(Nc4cccnc4F)cc3C2)n1 [compound 251] please.
A. 93
